# Tested on: Hs578T complex spheroid growth, percent test/control
# PROTOCOL NOTES: Anticancer human tumor Hs578T cell line growth inhibition [AhR];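 also: luminescent viability signal as a proxy for spheroid growth; spheroids exposed to agents for one week after three days of growth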
# SETUP CONDITIONS: second compound 0.316 µM; first compound 0.003 µM; active compounds read low
EXPERIMENTAL ENDPOINT: viability, T/C

compound="CCc1c2c(nc3ccc(O)cc13)-c1cc3c(c(=O)n1C2)COC(=O)[C@]3(O)CC + Cc1ccccc1N=Nc1ccc(NC(=O)c2ccnn2C)c(C)c1" experimental_system="Hs578T complex spheroid growth, percent test/control" test_value=78.4%
compound="Nc1ncn(C2CC(O)C(CO)S2)c(=O)n1 (centres undefined) + CC(CO)NC(=O)c1cc(-c2ccc(Cl)cc2)nn(-c2cnn(C)c2)c1=O" experimental_system="Hs578T complex spheroid growth, percent test/control" test_value=114%

# return recorded viability, T/C for input Nc1ncn(C2CC(O)C(CO)S2)c(=O)n1 (centres undefined) + Cc1ccccc1N=Nc1ccc(NC(=O)c2ccnn2C)c(C)c1
101%

Tell me its viability, T/C given Nc1ncn(C2CC(O)C(CO)S2)c(=O)n1 (centres undefined) + Cc1cncc(-c2nc(NCCc3c[nH]c4ccccc34)c3ncn(C(C)C)c3n2)c1 as the entry.
114%

Answer with the recorded viability, T/C for the compound listed here: CCc1c2c(nc3ccc(O)cc13)-c1cc3c(c(=O)n1C2)COC(=O)[C@]3(O)CC + Cc1cncc(-c2nc(NCCc3c[nH]c4ccccc34)c3ncn(C(C)C)c3n2)c1
78.6%
